Tested on: GP2d
test: 3D cell proliferation inhibition assay (CellTiter-Glo 3D)
Type: cell-based
recorded_conditions: GP2d, 120 h, GP2d cells, KRAS G12D, 3D culture, 5 days with compound
pIC50: −log10 of the molar value.

molecule: N#Cc1c(N)sc2c(F)cnc(-c3c4c(c5c(N6C7CCC6CN(O)C7)nc(OCC6(CN7CCC(=CF)CC7)CC6)nc5c3F)COC4)c12 [Example 22]
pIC50: 9.59
//
molecule: C=C1CN2CC(=C)CC2(COc2nc(N3C4CCC3CNC4)c3c4c(c(-c5ccc(F)c6sc(N)c(C#N)c56)c(F)c3n2)COC4)C1 [Example 18]
pIC50: 9.28
//
molecule: N#Cc1c(N)sc2c(F)ccc(-c3c4c(c5cnc(OCC6(CN7CCC(=CF)CC7)CC6)nc5c3F)COC4)c12 [Example 14]
pIC50: 8.23

Numbers sourced from patent EP4803523A1.
